Cited source for all entries: ChEMBL document CHEMBL1152178

Test: Inhibition of bovine brain PDE1
Design: species or system Bos taurus

{"columns": ["molecule", "IC50"],
 "data": [
  ["CC1(C)c2[nH]c3cc(Cl)ccc3c2C[C@@]23NC(=O)[C@]4(CCCN4C2=O)C[C@@H]13", "61.8 µM"],
  ["CC1(C)c2[nH]c3cc(Cl)c(Cl)cc3c2CC23CN4CCCC4(CC21)C(=O)N3 (racemic)", "16 µM"],
  ["CC1(C)c2[nH]c3cc(Cl)c(Cl)cc3c2C[C@@]23NC[C@]4(CCCN4C2=O)C[C@H]13", "12 µM"],
  ["CC1(C)c2[nH]c3cc(Cl)c(Cl)cc3c2C[C@@]23CN4CCC[C@]4(C[C@H]12)C(=O)N3", "134 µM"],
  ["CC1(C)c2[nH]c3ccc(Cl)cc3c2C[C@@]23NC(=O)[C@]4(CCCN4C2=O)C[C@H]13", "62.3 µM"],
  ["CC1(C)c2[nH]c3ccccc3c2C[C@@]23NC(=O)[C@]4(CCCN4C2=O)C[C@@H]13", "151 µM"],
  ["CC1(C)c2[nH]c3cc(Cl)ccc3c2C[C@@]23CN4CCC[C@]4(C[C@@H]12)C(=O)N3 [MALBRANCHEAMIDE B]", "183 µM"],
  ["CC1(C)c2[nH]c3cc(Cl)c(Cl)cc3c2C[C@@]23NC(=O)[C@]4(CCCN4C2=O)C[C@@H]13", "18.6 µM"],
  ["CC1(C)c2[nH]c3cc(Cl)c(Cl)cc3c2C[C@@]23NC(=O)[C@]4(CCCN4C2=O)C[C@H]13", "33.9 µM"],
  ["CC1(C)c2[nH]c3ccc(Cl)cc3c2C[C@@]23NC(=O)[C@]4(CCCN4C2=O)C[C@@H]13", "31.5 µM"],
  ["CC1(C)c2[nH]c3ccccc3c2C[C@@]23CN4CCC[C@]4(C[C@@H]12)C(=O)N3", "35.7 µM"],
  ["CC1(C)c2[nH]c3ccc(Cl)c(Cl)c3c2C[C@@]23NC(=O)[C@]4(CCCN4C2=O)C[C@H]13", "45.4 µM"],
  ["CC1(C)c2[nH]c3ccccc3c2C[C@@]23NC(=O)[C@]4(CCCN4C2=O)C[C@H]13", "23.6 µM"],
  ["CC1(C)c2[nH]c3cc(Cl)c(Cl)cc3c2C[C@@]23CN4CCC[C@]4(C[C@@H]12)C(=O)N3", "19.3 µM"],
  ["CC1(C)c2[nH]c3cc(Cl)ccc3c2CC23CN4CCCC4(CC21)C(=O)N3 (racemic) [D,L-MALBRANCHEAMIDE B]", "42.9 µM"],
  ["CC1(C)c2[nH]c3ccc(Cl)c(Cl)c3c2C[C@@]23NC[C@]4(CCCN4C2=O)C[C@H]13", "27.5 µM"]
]}

====

Species on record: Bos taurus
Assay: Ratio of IC50 of chlorpromazine to IC50 of compound for bovine brain PDE1
Ratio IC50 reference

{"columns": ["compound", "Ratio IC50"],
 "data": [
  ["CC1(C)c2[nH]c3cc(Cl)c(Cl)cc3c2C[C@@]23NC(=O)[C@]4(CCCN4C2=O)C[C@@H]13", 0.9],
  ["CC1(C)c2[nH]c3ccc(Cl)c(Cl)c3c2C[C@@]23NC(=O)[C@]4(CCCN4C2=O)C[C@H]13", 0.2],
  ["CC1(C)c2[nH]c3ccc(Cl)c(Cl)c3c2C[C@@]23CN4CCC[C@]4(C[C@H]12)C(=O)N3", 0.1],
  ["CC1(C)c2[nH]c3cc(Cl)c(Cl)cc3c2CC23CN4CCCC4(CC21)C(=O)N3 (racemic)", 1.1],
  ["CC1(C)c2[nH]c3ccc(Cl)cc3c2C[C@@]23NC(=O)[C@]4(CCCN4C2=O)C[C@@H]13", 0.4],
  ["CC1(C)c2[nH]c3ccc(Cl)c(Cl)c3c2C[C@@]23NC[C@]4(CCCN4C2=O)C[C@H]13", 0.4],
  ["CC1(C)c2[nH]c3cc(Cl)c(Cl)cc3c2C[C@@]23CN4CCC[C@]4(C[C@@H]12)C(=O)N3", 0.9],
  ["CC1(C)c2[nH]c3ccc(Cl)cc3c2C[C@@]23CN4CCC[C@]4(C[C@@H]12)C(=O)N3", 0.2],
  ["CC1(C)c2[nH]c3cc(Cl)c(Cl)cc3c2C[C@@]23CN4CCC[C@]4(C[C@H]12)C(=O)N3", 0.1],
  ["CC1(C)c2[nH]c3cc(Cl)c(Cl)cc3c2C[C@@]23NC[C@]4(CCCN4C2=O)C[C@H]13", 0.9],
  ["CC1(C)c2[nH]c3ccc(Cl)cc3c2C[C@@]23NC(=O)[C@]4(CCCN4C2=O)C[C@H]13", 0.2],
  ["CC1(C)c2[nH]c3ccccc3c2C[C@@]23NC(=O)[C@]4(CCCN4C2=O)C[C@@H]13", 0.1],
  ["CC1(C)c2[nH]c3cc(Cl)ccc3c2C[C@@]23NC(=O)[C@]4(CCCN4C2=O)C[C@@H]13", 0.2],
  ["CC1(C)c2[nH]c3cc(Cl)ccc3c2C[C@@]23CN4CCC[C@]4(C[C@@H]12)C(=O)N3 [MALBRANCHEAMIDE B]", 0.1],
  ["CC1(C)c2[nH]c3ccccc3c2C[C@@]23CN4CCC[C@]4(C[C@@H]12)C(=O)N3", 0.5],
  ["CC1(C)c2[nH]c3cc(Cl)ccc3c2CC23CN4CCCC4(CC21)C(=O)N3 (racemic) [D,L-MALBRANCHEAMIDE B]", 0.3],
  ["CC1(C)c2[nH]c3cc(Cl)ccc3c2C[C@@]23NC(=O)[C@]4(CCCN4C2=O)C[C@H]13", 0.3],
  ["CC1(C)c2[nH]c3ccccc3c2C[C@@]23NC(=O)[C@]4(CCCN4C2=O)C[C@H]13", 0.7],
  ["CC1(C)c2[nH]c3cc(Cl)c(Cl)cc3c2C[C@@]23NC(=O)[C@]4(CCCN4C2=O)C[C@H]13", 0.5]
]}
